Values from PubChem BioAssay

Catalogue of log fold change Tl+ flux readings, one per entry.
- target entity: Calcium-activated potassium channel subunit alpha-1 (Homo sapiens) + Leucine-rich repeat-containing protein 26 (Homo sapiens) (UniProt Q12791+Q2I0M4)
- Sequence (Q2I0M4 whole entry, looked up, one chain of several): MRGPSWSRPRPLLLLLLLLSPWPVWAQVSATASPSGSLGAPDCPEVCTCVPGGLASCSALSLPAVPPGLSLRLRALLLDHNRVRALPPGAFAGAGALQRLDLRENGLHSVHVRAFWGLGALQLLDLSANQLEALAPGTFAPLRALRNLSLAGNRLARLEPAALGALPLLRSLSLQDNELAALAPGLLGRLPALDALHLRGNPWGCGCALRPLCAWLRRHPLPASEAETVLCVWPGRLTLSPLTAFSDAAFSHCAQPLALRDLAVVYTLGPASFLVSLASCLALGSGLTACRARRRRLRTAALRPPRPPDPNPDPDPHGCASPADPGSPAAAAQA
- test: modulators of BK channel variants, profiling panel, selectivity assay, cell-based, U2OS BacMam, thallium flux, beta subunits (AID 1259406);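 also: initial slope of Thallos dye fluorescence rise after thallium is added; log ratio against the mean of 0.3% DMSO vehicle wells on the same plate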
- measurement parameters: F380Y/Slo1WT/gamma1, at 30 µM
API doc: respond with a numeric literal and nothing else, no unit.

Reference set, count: 6
- compound: "COc1cc(NC(C)CCCN)c2ncccc2c1 (stereo unspecified)"
  log fold change Tl+ flux: -0.0425
- compound: "CCCc1cc(=O)[nH]c(=S)[nH]1"
  log fold change Tl+ flux: 0.00637
- compound: "CN(C)CCOC(C)(c1ccccc1)c1ccccn1 (stereo unspecified)"
  log fold change Tl+ flux: -0.0144
- compound: "COc1cc2nc(N3CCN(C(=O)c4ccco4)CC3)nc(N)c2cc1OC"
  log fold change Tl+ flux: 0.00974
- compound: "CCC(=O)O[C@]1(C(=O)CCl)[C@@H](C)C[C@H]2[C@@H]3CCC4=CC(=O)C=C[C@]4(C)[C@@]3(F)[C@@H](O)C[C@@]21C"
  log fold change Tl+ flux: 0.157
- compound: "O=C(O)CCCc1ccccc1"
  log fold change Tl+ flux: 0.00509

The recorded log fold change Tl+ flux for `Cc1noc(NS(=O)(=O)c2ccc(N)cc2)c1C` is 0.0135

So, `CC1=C(C(=O)O)N2C(=O)[C@@H](NC(=O)[C@H](N)c3ccccc3)[C@H]2SC1` ? Its log fold change Tl+ flux was -0.0298

GET /value?item= CCCNC(C)C(=O)Nc1ccccc1C (stereo unspecified) &field=log fold change Tl+ flux returns -0.0185

So, `CC[C@H](C)C(=O)O[C@H]1C[C@H](O)C=C2C=C[C@H](C)[C@H](CC[C@@H](O)C[C@@H](O)CC(=O)O)[C@H]21` ? Its log fold change Tl+ flux was 0.00396

// field: log fold change Tl+ flux; key: CC(N=C(NC#N)Nc1ccncc1)C(C)(C)C (stereo unspecified) ; value = -0.0269
